target: Dual specificity tyrosine-phosphorylation-regulated kinase 1A (Homo sapiens, UniProt Q13627)
As shown below, each of these molecules has a reported IC50 value.
quantity-name: IC50

[[record]]
molecule = "N#Cc1ccc2c(c1)ncc1c(Oc3cccc(Cl)c3)cncc12"
quantity_name = "IC50"
value = "> 5 µM"

[[record]]
molecule = "Cn1cc(-c2ccc3cnc4[nH]cc(C5CCC5)c4c3c2)cn1"
quantity_name = "IC50"
value = "< 0.01 µM"

[[record]]
molecule = "CC(=O)N1CCc2c(cnc3[nH]cc(-c4ccc5c(c4)OCO5)c23)C1"
quantity_name = "IC50"
value = "< 0.5 µM"

[[record]]
molecule = "CN1CCc2c([nH]c(=O)c3cc(C4CCOCC4)ccc23)C1"
quantity_name = "IC50"
value = "> 5 µM"

[[record]]
molecule = "Cn1cc(-c2ccc3cnc4[nH]cc(C5CC(O)C5)c4c3c2)cn1 (configuration not stated)"
quantity_name = "IC50"
value = "< 0.01 µM"

[[record]]
molecule = "Cn1cc(-c2ccc3cnc4[nH]cc(C5CCC(C(=O)O)CC5)c4c3c2)cn1 (configuration not stated)"
quantity_name = "IC50"
value = "< 0.01 µM"

[[record]]
molecule = "CN1CCC(C(=O)Nc2ncc(-c3ccc4c(c3)COC4=O)s2)CC1"
quantity_name = "IC50"
value = "< 0.05 µM"


----------
target: Dual specificity tyrosine-phosphorylation-regulated kinase 1A (Homo sapiens, UniProt Q13627)
pIC50: −log10 of the molar value.
quantity-name: pIC50

[[record]]
molecule = "COC1CC=C(c2n[nH]c3ncc4ccc(-c5cnn(C)c5)cc4c23)CC1 (stereo not given)"
value = "> 8.00"

[[record]]
molecule = "Cc1ncc(-c2ccc3cnc4[nH]cc(C5CCCCC5)c4c3c2)s1"
value = "> 8.00"

[[record]]
molecule = "COC1CCC(c2c[nH]c3ncc4ccc(-c5cnn(C)c5)cc4c23)CC1 (stereo not given)"
value = "> 8.00"

[[record]]
molecule = "COc1ccc(-c2ccc3c4c([nH]c(=O)c3c2)CN(C)CC4)cc1OC"
value = "< 5.30"

[[record]]
molecule = "CN1CCc2c([nH]c(=O)c3cc(C4=CCOCC4)ccc23)C1"
value = "< 5.30"

[[record]]
molecule = "Cc1c(C2CCOCC2)[nH]c2ncc3ccc(-c4cnn(C)c4)cc3c12"
value = "> 8.00"

[[record]]
molecule = "Cn1ncc2c3ccc(C#N)cc3ncc21"
value = "> 6.30"

[[record]]
molecule = "Cn1cc(-c2ccc3c(-c4ccc5cnn(C)c5c4)cnn3c2)ccc1=O"
value = "> 8.00"

[[record]]
molecule = "COC(=O)c1ccc2c(cnc3[nH]cc(-c4ccc(F)cc4)c32)c1"
value = "< 6.00"

[[record]]
molecule = "COC1CC(c2c[nH]c3ncc4ccc(-c5cnn(C)c5)cc4c23)C1 (stereo not given)"
value = "> 8.00"

[[record]]
molecule = "Cn1cc(-c2ccc3c(-c4ccc5cnsc5c4)cnn3c2)ccc1=O"
value = "> 8.00"

[[record]]
molecule = "Cn1cc(-c2ccc3cnc4[nH]cc(C5CCC(O)CC5)c4c3c2)cn1 (stereo not given)"
value = "> 8.00"

[[record]]
molecule = "CC(=O)N1CCc2c(cnc3[nH]cc(C4CCC4)c23)C1"
value = "> 6.30"

[[record]]
molecule = "CN(C)CCOc1ccc2c(c1)[nH]c(=O)c1cc(-c3ccncc3)cn12"
value = "> 6.30"

[[record]]
molecule = "CN1CCC(C(=O)Nc2ncc(-c3ccc4oncc4c3)s2)CC1"
value = "> 7.30"

